Record: MIC reported on E. faecalis ATCC 29212.
Field note: include the unit after the figure.

Query: Any idea what MIC was measured for `Cl.N#Cc1ccc2ccc(=O)n([C@H]3CC[C@H](NCc4cc5c(=O)oc6ccc(F)cc6c5[nH]4)CC3)c2c1` ?
Result: 0.25 µg/mL

Query: Any idea what MIC was measured for `Cl.O=c1oc2ccc(F)cc2c2[nH]c(CN[C@H]3CC[C@H](n4c(=O)ccc5ncc(F)cc54)CC3)cc12` ?
Result: 0.12 µg/mL

Query: Any idea what MIC was measured for `O=C1COc2ncc(F)cc2N1[C@H]1CC[C@H](NCc2cc3c(=O)oc4ccc(F)cc4c3[nH]2)CC1` ?
Result: 2 µg/mL

Query: Any idea what MIC was measured for `COc1cnc2ncc(=O)n([C@H]3CC[C@H](NCc4cc5c(=O)oc6ccc(F)cc6c5[nH]4)CC3)c2c1` ?
Result: 0.25 µg/mL

Query: Any idea what MIC was measured for `Cl.O=c1oc2ccc(F)cc2c2[nH]c(CN[C@H]3CC[C@H](n4c(=O)ccc5ccc(F)cc54)CC3)cc12` ?
Result: 0.25 µg/mL

Query: Any idea what MIC was measured for `O=c1oc2ccc(F)cc2c2[nH]c(CN[C@H]3CC[C@H](n4c(=O)cnc5ncc(F)cc54)CC3)cc12` ?
Result: 0.5 µg/mL
